Literature compilation of pIC50 measurements on Aromatase (Homo sapiens, UniProt P11511).
Target: Aromatase (Homo sapiens, UniProt P11511)
Sequence (P11511 whole entry): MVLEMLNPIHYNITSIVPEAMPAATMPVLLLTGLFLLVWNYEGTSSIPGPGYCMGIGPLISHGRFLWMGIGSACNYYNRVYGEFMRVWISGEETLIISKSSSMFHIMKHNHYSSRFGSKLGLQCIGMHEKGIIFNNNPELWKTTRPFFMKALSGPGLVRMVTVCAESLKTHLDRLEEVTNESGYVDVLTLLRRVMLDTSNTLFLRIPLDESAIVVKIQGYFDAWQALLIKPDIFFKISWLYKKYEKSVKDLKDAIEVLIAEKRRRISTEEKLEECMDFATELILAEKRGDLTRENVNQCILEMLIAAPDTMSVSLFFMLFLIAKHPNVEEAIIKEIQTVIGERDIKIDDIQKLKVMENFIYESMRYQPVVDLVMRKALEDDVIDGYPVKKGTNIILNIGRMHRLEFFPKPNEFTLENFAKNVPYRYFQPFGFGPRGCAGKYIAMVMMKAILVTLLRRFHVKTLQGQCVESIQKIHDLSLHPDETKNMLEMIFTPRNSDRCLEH
pIC50: −log10 of the molar value.

Example entries and their recorded answers appear below.
COc1ccc2ccc(-c3cccnc3)c(Cl)c2c1	< 4.44
CC1(C)CC(=O)c2c(noc2Cc2ccc(C(N)=O)cc2)C1	< 4.70
Cc1c(F)cncc1-c1cc(F)c2c(c1)CCc1nnc(C)n1-2	< 5.00

Input: Give the measured pIC50 for CC1(C)CC(=O)c2c(noc2Cc2ccc(C(=O)N3CC[C@@H](O)C3)cc2)C1
Output: < 4.70

Input: Provide one value: measured pIC50 of CN(CCO)C(=O)c1ccc(Cc2onc3c2C(=O)CC(C)(C)C3)cc1
Output: < 4.50

Input: Quick one: give measured pIC50 for CCC[C@H](O)C[C@@H]1Cc2cc(OC)c(O)c(O)c2C(=O)O1
Output: < 4.77
